Test system: blackgrass
Assay: Test B pre/postemergence blackgrass
Format: in vivo, Alopecurus myosuroides
Details: Rate 125 g/ha, Postemergence; scale 0 to 10, 0 is no effect, 10 is complete control
Experimental: […] At the same time, these crop and weed species were also treated with postemergence applications of test chemicals formulated in the same manner. […] Treated plants and controls were maintained in a greenhouse for twelve to sixteen days, after which all species were compared to controls and visually evaluated. […]
Measurement kind: Blackgrass plant response rating
Answer as a number with no unit attached.

Can you look up the measured Blackgrass plant response rating of COC(=O)C(C)n1c(=O)on(C(=O)N(c2ccc(F)cc2F)C(C)C)c1=O (stereo not drawn) [Compound 463] for me?
0

Recorded Blackgrass plant response rating of CC(C)N(C(=O)n1oc(=O)n(C2CCCCCC2)c1=O)C1=CCCCC1 [Compound 428] , please.
0

State the recorded Blackgrass plant response rating for this entry: CC(C)N(C(=O)n1oc(=O)n(CNC(=O)c2ccccc2)c1=O)c1ccc(F)cc1 [Compound 445]
0

Entry CC(C)N(C(=O)n1oc(=O)n(C(C)C(=O)N(C)C)c1=O)c1ccc(Cl)cc1 (stereo not drawn) [Compound 480] : reported Blackgrass plant response rating = ?
3

# input compound: COC(OC)C(C)n1c(=O)on(C(=O)N(c2ccc(F)cc2F)C(C)C)c1=O (stereo not drawn) [Compound 472] ; wanted: its Blackgrass plant response rating
0

May I ask what Blackgrass plant response rating has been recorded for COCC(OC)n1c(=O)on(C(=O)N(c2ccc(F)cc2)C(C)C)c1=O (stereo not drawn) [Compound 446] ?
8
